All figures here come from ChEMBL document CHEMBL1157074.

assay: Inhibition of bovine testis hyaluronidase type 4 after 20 mins by modified Morgan-Elson method; set-up: species or system Bos taurus
pIC50: −log10 of the molar value.

molecule: COc1cc(/C=C/C(=O)O[C@H](C(=O)O)[C@](O)(Cc2ccc(O)c(O)c2)C(=O)O)cc(OC)c1O [CIMICIFUGIC ACID I]
operator-symbol: =
pIC50: 3.84
--
molecule: COC(=O)C(O)C(Cc1ccc(O)cc1)(OC(=O)/C=C/c1ccc(O[C@@H]2O[C@H](CO)[C@@H](O)[C@H](O)[C@H]2O)c(OC)c1)C(=O)O (stereo partly specified) [SHOMASIDE D]
operator-symbol: <
pIC50: 3.18
--
molecule: O=C(O[C@H](C(=O)O)[C@](O)(Cc1ccc(O)c(O)c1)C(=O)O)c1ccc(O)cc1 [CIMICIFUGIC ACID H]
operator-symbol: =
pIC50: 3.28
--
molecule: COc1ccc(/C=C/C(=O)O[C@H](C(=O)O)[C@](O)(Cc2ccc(O)c(O)c2)C(=O)O)cc1OC [CIMICIFUGIC ACID G]
operator-symbol: =
pIC50: 3.86
--
molecule: COc1ccc(/C=C/C(=O)O[C@H](C(=O)O)[C@](O)(Cc2ccc(O)c(O)c2)C(=O)O)cc1O [CIMICIFUGIC ACID B]
operator-symbol: =
pIC50: 4.09
--
molecule: COc1cc(/C=C/C(=O)O[C@H](C(=O)O)[C@](O)(Cc2ccc(O)cc2)C(=O)O)cc(OC)c1O [CIMICIFUGIC ACID J]
operator-symbol: =
pIC50: 3.71
--
molecule: COc1ccc(/C=C/C(=O)O[C@H](C(=O)O)[C@](O)(Cc2ccc(O)cc2)C(=O)O)cc1O [CIMICIFUGIC ACID F]
operator-symbol: =
pIC50: 4.04
--
molecule: COc1cc(OC(=O)/C=C/c2ccc(O[C@@H]3O[C@H](CO)[C@H](O)[C@H](O)[C@H]3O)c(OC)c2)ccc1CCO [SHOMASIDE E]
operator-symbol: <
pIC50: 3.10
--
molecule: COc1cc(/C=C/C(=O)O[C@H](C(=O)O)[C@](O)(Cc2ccc(O)c(O)c2)C(=O)O)ccc1O[C@@H]1O[C@H](CO)[C@H](O)[C@H](O)[C@H]1O [SHOMASIDE A]
operator-symbol: =
pIC50: 3.24
--
molecule: COc1cc(/C=C/C(=O)O[C@H](C(=O)O)[C@](O)(Cc2ccc(O)c(O)c2)C(=O)O)ccc1O [CIMICIFUGIC ACID A]
operator-symbol: =
pIC50: 3.95
--
molecule: COc1cc(/C=C/C(=O)O[C@H](C(=O)O)[C@](O)(Cc2ccc(O)cc2)C(=O)O)ccc1O [CIMICIFUGIC ACID E]
operator-symbol: =
pIC50: 3.92

---

Entries annotated with measured IC50
assay: Inhibition of bovine testis hyaluronidase type 4 after 20 mins by modified Morgan-Elson method; set-up: species or system Bos taurus

compound: O=C(/C=C/c1ccc(O)cc1)O[C@H](C(=O)O)[C@](O)(Cc1ccc(O)c(O)c1)C(=O)O
units-of-measure: µM
IC50: 251
--
compound: COc1cc(/C=C/C(=O)O[C@H](C(=O)O)[C@](O)(Cc2ccc(O)cc2)C(=O)O)ccc1O[C@@H]1O[C@H](CO)[C@@H](O)[C@H](O)[C@H]1O [SHOMASIDE C]
units-of-measure: µM
IC50: 663
--
compound: O=C(/C=C/c1ccc(O)c(O)c1)O[C@H](Cc1ccc(O)c(O)c1)C(=O)O
units-of-measure: µM
IC50: 545
--
compound: O=C(/C=C/c1ccc(O)c(O)c1)O[C@H](C(=O)O)[C@](O)(Cc1ccc(O)cc1)C(=O)O
units-of-measure: µM
IC50: 153
--
compound: COc1cc(/C=C/C(=O)O[C@H](C(=O)O)[C@](O)(Cc2ccc(O)cc2)C(=O)O)ccc1O[C@@H]1O[C@H](CO)[C@H](O)[C@H](O)[C@H]1O [SHOMASIDE B]
units-of-measure: µM
IC50: 430
--
compound: O=C(/C=C/c1ccc(O)c(O)c1)O[C@H](C(=O)O)[C@](O)(Cc1ccc(O)c(O)c1)C(=O)O
units-of-measure: µM
IC50: 144
